# test_description: Caspase-3/7 induction in HepG2 cells by small molecules, qHTS assay (AID 1346978); also: % is scaled to controls: 0 for no effect and ±100 for the full control effect; nearly all actives have a fitted effect of over 15% in size
# settings: HepG2 caspase-3/7 activation, Caspase-Glo luminescence, 17 h; series mostly up to 92.4 µM
Records with an inconclusive call do not appear. Calls of active or inactive are those of the source. Calls follow the shape of the dose curve; as a rule, active = well fitted activation curve with a large enough effect in the repeat runs; inconclusive = weak or mixed curves; inactive = flat fitted curve, though single readings scatter.
caspase activation values for the molecules below.
value_type: caspase activation

O=S(O)O; -0.246% [at 19 µM] (inactive)
CCN1CCN(c2cc(-c3ccc(F)cc3)c3c(n2)CCCCCC3)CC1; 0.316% [at 19 µM] (inactive)
C=C/C=C/C=C/CCCCC; -0.0295% [at 19 µM] (inactive)
S=C(SSSSSSC(=S)N1CCCCC1)N1CCCCC1; 0.0321% [at 19 µM] (inactive)
COc1cc(C(C)C)c2c(c1)S(=O)(=O)N(COc1cc(=O)n3cccc(OCCN4CCCCC4)c3n1)C2=O; 0.878% [at 19 µM] (inactive)
CCCCCCCCCCCCCCCCCO; 0.39% [at 19 µM] (inactive)
O=S(=O)(O)c1cc(S(=O)(=O)O)c2ccc3c(S(=O)(=O)O)cc(S(=O)(=O)O)c4ccc1c2c43; 0.784% [at 19 µM] (inactive)
